Below, Ki values reported for Adenosine receptor A1 (Rattus norvegicus) across several publications.
Biological target: Adenosine receptor A1 (Rattus norvegicus)
Sequence (P25099 whole entry): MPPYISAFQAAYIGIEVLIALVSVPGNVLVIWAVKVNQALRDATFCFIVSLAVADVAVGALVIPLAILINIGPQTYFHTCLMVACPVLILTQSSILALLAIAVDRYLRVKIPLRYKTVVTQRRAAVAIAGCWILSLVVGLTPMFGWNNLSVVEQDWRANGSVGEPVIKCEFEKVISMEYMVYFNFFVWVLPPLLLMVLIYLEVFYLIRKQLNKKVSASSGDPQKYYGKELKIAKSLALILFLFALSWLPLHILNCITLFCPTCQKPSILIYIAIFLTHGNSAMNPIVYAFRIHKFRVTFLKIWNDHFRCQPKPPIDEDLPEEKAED

compound	Ki
CCCn1c(=O)c2[nH]c(-c3ccc(OC)cc3O)nc2n(CCC)c1=O	0.011 µM
OC[C@H]1O[C@@H](n2cnc3c(NN4CC=C(c5ccccc5)CC4)nc(Cl)nc32)[C@H](O)[C@@H]1O	0.0061 µM
CCCCn1c(=O)c2c(nc3n2CCCN3c2ccc(OCCN3CCCC3)cc2)n(CCCC)c1=O	0.072 µM
CC(C)Cn1c(=O)c2[nH]c(Cc3ccccc3)nc2n(Cc2ccco2)c1=O	0.49 µM
CCCn1c(=O)c2nc(C3CC4CCCC4C3)[nH]c2n(CCC)c1=O (stereo not given)	0.00075 µM
CC(=O)OCCn1cnc2c1c(=O)n(C)c(=O)n2C	40 µM
CC(C)CCCOc1nc(N)c2ncn(C3O[C@H](CO)[C@@H](O)[C@H]3O)c2n1 (stereo not given in full)	2.1 µM
CCCn1c(=O)c2nc(-c3ccc(C(=O)O)cc3)[nH]c2n(CCC)c1=O	0.17 µM
CCNC(=O)[C@H]1OC(n2cnc3c(NCCCCNS(=O)(=O)c4cccc5c(N(C)C)cccc45)ncnc32)[C@H](O)[C@@H]1O (stereo not given in full)	0.07 µM
Nc1nc(-c2cccc(C(=O)NCCc3ccc(O)cc3)c2)cn2nc(-c3ccco3)nc12	> 0.25 µM
CC(Cc1ccccc1)Nc1nc(N)nc2c1ncn2C1O[C@H](CO)[C@@H](O)[C@H]1O (stereo not given in full)	0.0192 µM
Nc1nc(Cl)nc2c1ncn2[C@H]1[C@H](O)[C@H](O)[C@]2(CO)C[C@H]12	0.273 µM
Nc1ncnc2c1ncn2[C@H]1C[C@@H](O)[C@H](O)[C@@H]1O	180 µM
Nc1nc(NC[C@@H]2CC[C@@H]3CN(Cc4ccc(F)cc4F)CCN3C2)nc2nc(-c3ccco3)nn12 (racemic)	> 0.5 µM
Nc1nc(N2CCN3C[C@@H](COc4ccccc4F)CC[C@H]3C2)nc2nc(-c3ccco3)nn12 (racemic)	> 0.5 µM
CCCCCCc1nc(N)c2ncn(C3O[C@H](CO)[C@@H](O)[C@H]3O)c2n1 (stereo not given in full)	0.202 µM
Nc1ncnc2c1c(C=O)c(C=O)n2-c1ccccc1	50.1 µM
CCN(CC)c1nc(NC(=O)Nc2ccccc2)c2ccccc2n1	0.0648 µM
Cn1c(=O)c2c(nc3n2CCCN3Cc2cccs2)n(C)c1=O	2.65 µM
Cc1ccc(-c2oc3ccc(Cl)cc3c(=O)c2Cl)c(OC(C)C)c1	> 10 µM
Cc1[nH]c2ncnc(N)c2c1C	55 µM
O=C(CCc1ccccc1)Nc1nc2ccccc2c(=O)s1	0.422 µM
Nc1nc(SCCC2COCCO2)nc2c1ncn2[C@@H]1O[C@H](CO)[C@@H](O)[C@H]1O (stereo not given in full)	0.454 µM
Nc1cc(Cl)nc2c1ncn2[C@@H]1O[C@H](CO)[C@@H](O)[C@H]1O	0.226 µM
CCCn1c(=O)c2c(nc3n2CCCN3CCc2ccc(OCC(=O)NCCN3CCOCC3)cc2)n(CCC)c1=O	0.509 µM
Nc1nc(-c2ccccn2)nc2c1c1c(n2-c2ccccc2)CCCC1	8.9 µM
Nc1nc(N2CCN3C[C@H](COc4ccccc4)CC[C@H]3C2)nc2nc(-c3ccco3)nn12 (racemic)	> 0.5 µM
CC(O)(C#Cc1cn2nc(-c3ccco3)nc2c(N)n1)c1ccncc1 (stereo not given)	0.17 µM
C[C@H](Cc1ccccc1)Nc1ncnc2c1ncn2C[C@H](O)CO	> 10 µM
OC[C@H]1O[C@@H](n2cnc3c(NCCCCc4ccccc4)ncnc32)[C@H](O)[C@@H]1O	0.0159 µM
O=C(Nc1ccccc1)Nc1nc(-c2ccncc2)nc2ccccc12	0.166 µM
OC[C@H]1O[C@@H](n2cnc3c(NC4CSc5ccccc5C4)ncnc32)[C@H](O)[C@@H]1O (stereo not given in full)	0.0036 µM
CNC(=O)C1CC(n2cnc3c(NCc4cccc(I)c4)ncnc32)C(O)C1O (stereo not given)	35.9 µM
Nc1nc2c(cnn2CCCc2ccc(O)c(O)c2)c2nc(-c3ccco3)nn12	2.25 µM
Cn1c(=O)c2c(nc3n2CCN(CCc2ccc(OCCN4CCCCC4)cc2)C3)n(C)c1=O	1.74 µM
C=CCn1c(=O)c2nc[nH]c2n(CC=C)c1=O	10 µM
Cn1c(=O)c2[nH]c(-c3ccc(N)cc3)nc2n(C)c1=O	0.23 µM
OC[C@H]1O[C@@H](n2cnc3c(NC4CC4)ncnc32)[C@H](O)[C@@H]1O	0.0032 µM
Nc1nc(NC[C@@H]2CC[C@@H]3CN(Cc4ccc(F)cc4F)CCN3C2)cc2nc(-c3ccco3)nn12	> 1 µM
OC[C@H]1O[C@@H](n2cnc3c(NC4CCCc5ccc(O)cc54)ncnc32)[C@H](O)[C@@H]1O (stereo not given in full)	0.0401 µM

---

Biological target: Adenosine receptor A1 (Rattus norvegicus, UniProt P25099)
Sequence (P25099 whole entry): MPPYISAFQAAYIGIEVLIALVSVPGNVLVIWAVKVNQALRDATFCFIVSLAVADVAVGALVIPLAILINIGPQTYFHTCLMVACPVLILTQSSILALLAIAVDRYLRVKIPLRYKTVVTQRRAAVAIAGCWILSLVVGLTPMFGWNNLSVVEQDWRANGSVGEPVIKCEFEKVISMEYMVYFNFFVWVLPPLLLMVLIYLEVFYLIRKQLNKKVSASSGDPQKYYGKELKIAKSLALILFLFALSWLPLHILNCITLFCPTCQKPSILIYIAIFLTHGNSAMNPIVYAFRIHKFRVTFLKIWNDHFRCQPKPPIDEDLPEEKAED
pKi: −log10 of the molar value.
Listing of pKi toward Adenosine receptor A1 (Rattus norvegicus, UniProt P25099), each taken from a published source.
measurement_name: pKi

compound	measurement_name	numeric_readout
CNC(=O)[C@H]1OC(n2cnc3c(NCc4cccc(N)c4)ncnc32)[C@H](O)[C@@H]1O (some centres undefined)	pKi	6.00
CCCCn1c(=O)c2c(nc(/C=C/C(=O)O)n2C)n(CCCC)c1=O	pKi	5.23
CCCCCC(=O)Nc1nc(Oc2ccccc2)nc2nc(-c3ccco3)nn12	pKi	5.54
CCNC(=O)[C@H]1OC(n2cnc3c(NCCCCCCCCNS(=O)(=O)c4cccc5c(N(C)C)cccc45)ncnc32)[C@H](O)[C@@H]1O (some centres undefined)	pKi	6.95
CSC[C@H]1OC(n2cnc3c(N[C@H](C)Cc4ccccc4)ncnc32)[C@H](O)[C@@H]1O (some centres undefined)	pKi	7.54
C[C@H](Cc1ccccc1)Nc1ncnc2c1ncn2C1O[C@H](CCl)[C@@H](O)[C@H]1O (some centres undefined)	pKi	8.80
NCCC(=O)Nc1nc2ccc(Cl)cc2c2nc(-c3ccco3)nn12	pKi	7.05

---

Target: Adenosine receptor A1 (Rattus norvegicus)
Sequence (P25099 whole entry): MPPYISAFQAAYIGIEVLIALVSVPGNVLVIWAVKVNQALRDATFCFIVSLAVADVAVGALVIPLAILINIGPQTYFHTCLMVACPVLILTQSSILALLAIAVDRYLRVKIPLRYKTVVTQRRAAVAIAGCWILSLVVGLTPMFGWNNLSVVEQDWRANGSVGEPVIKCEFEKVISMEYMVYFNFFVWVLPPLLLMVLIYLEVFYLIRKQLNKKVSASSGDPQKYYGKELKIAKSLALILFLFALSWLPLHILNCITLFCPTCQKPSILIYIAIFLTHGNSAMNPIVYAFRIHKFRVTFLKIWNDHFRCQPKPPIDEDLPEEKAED
// cross-source set; read-out = Ki; system = Adenosine receptor A1 (Rattus norvegicus)

compound	Ki [nM]
OC[C@H]1OC(n2cnc3c(NCC4c5ccccc5Oc5ccccc54)ncnc32)[C@H](O)[C@@H]1O (some centres undefined)	62
C[C@H](Cc1ccccc1)Nc1ncnc2c1ncn2C1CCCCO1 (some centres undefined)	1200
CCCOCCc1nc(N)c2ncn(C3O[C@H](CO)[C@@H](O)[C@H]3O)c2n1 (some centres undefined)	128
OC[C@H]1O[C@@H](n2cnc3c(N[C@@H]4C[C@@H]5CC[C@H]4C5)ncnc32)[C@H](O)[C@@H]1O	1.65
COc1cc(/C=C/c2nc3c(=O)n(C)c(=O)n(C)c3[nH]2)cc(OC)c1OC	2280
Cc1[nH]c2nc(C(C)c3ccccc3)nc(N)c2c1C (centres undefined)	6840
CCCn1c(=O)c2[nH]c(-c3ccc(S(=O)(=O)O)cc3)nc2n(CCC)c1=O	210
O=c1c2[nH]c(Cc3cccs3)nc2n(Cc2ccco2)c(=O)n1CC1CC1	347
